- TEST SUMMARY: Assay for stability in liver microsomes
- Assay type: in vitro ADME
- EXPERIMENTAL CONDITIONS: human liver microsomes, NADPH, 37° C., 0/30/60 min
READOUT KIND: half-life at 1 µM

1. CCn1c(-c2cc(N3CCN(C)CC3)cnc2[C@H](C)OC)c2c3cc(ccc31)-c1csc(n1)C[C@H](NC(=O)[C@H]1[C@H](C)[C@@H]1C)C(=O)N1CCC[C@H](N1)C(=O)OCC(C)(C)C2 (atropisomer, axis not shown; (Ra)) [Control compound 1, reference compound]	11.8 min

---

- Test system: p-ERK in NCI-H441 cells (KRAS G12V mutation)
- TEST SUMMARY: Cell p-ERK assay (HTRF) in NCI-H441 cells
- Format: cell-based, human
- EXPERIMENTAL CONDITIONS: NCI-H441 cells, 3 h compound incubation, HTRF p-ERK T202/Y204; read-out: H441 p-ERK IC50
log10(IC50) values for the compounds below.
READOUT KIND: log10(IC50) (log10 of the value in nM)

1) CCn1c(-c2cc(C#CCN(C)CCOC)cnc2[C@H](C)OC)c2c3cc(ccc31)-c1csc(n1)C[C@H](NC(=O)[C@H]1[C@H](C)[C@@H]1C)C(=O)N1CCC[C@H](N1)C(=O)OCC(C)(C)C2 (atropisomer, axis not shown; (Ra))	-0.72
2) CCn1c(-c2cc(OCCN3CCOCC34CC4)cnc2[C@H](C)OC)c2c3cc(ccc31)-c1csc(n1)C[C@H](NC(=O)[C@H]1C[C@@H]1C(F)F)C(=O)N1CCC[C@H](N1)C(=O)OCC1(CC1)C2 (relative stereo)	0.75
3) CCn1c(-c2cc(C#CCN3CC(O)C3)cnc2[C@H](C)OC)c2c3cc(ccc31)-c1csc(n1)C[C@H](NC(=O)[C@H]1[C@H](C)[C@@H]1C)C(=O)N1CCC[C@H](N1)C(=O)OCC(C)(C)C2	-0.51
4) CCn1c(-c2cc(CCN3CCS(=O)(=O)CC3)cnc2[C@H](C)OC)c2c3cc(ccc31)-c1csc(n1)C[C@H](NC(=O)[C@H]1[C@H](C)[C@@H]1C)C(=O)N1CCC[C@H](N1)C(=O)OCC(C)(C)C2 [Compound Z485A]	0.06
5) CCn1c(-c2cc(C#CCN3C4CCC3COC4)cnc2[C@H](C)OC)c2c3cc(ccc31)-c1csc(n1)C[C@H](NC(=O)[C@H]1[C@H](C)[C@@H]1C)C(=O)N1CCC[C@H](N1)C(=O)OCC(C)(C)C2 (atropisomer, axis not shown; (Ra))	-0.64
6) CCn1c(-c2cc(C#CCN3CCC3)cnc2[C@H](C)OC)c2c3cc(ccc31)-c1csc(n1)C[C@H](NC(=O)[C@H]1[C@H](C)[C@@H]1C)C(=O)N1CCC[C@H](N1)C(=O)OCC(C)(C)C2 (atropisomer, axis not shown; (Sa)) [Compound Z555]	1.05

---

Measured pIC50, listed per entry.
- Test system: p-ERK in AsPC-1 cells (KRAS G12D mutation)
- TEST SUMMARY: Cell p-ERK assay (HTRF) in AsPC-1 cells
- Type: cell-based, human
- EXPERIMENTAL CONDITIONS: Homo sapiens, ASPC1, 3 h, AsPC-1 cells, 3 h compound incubation, HTRF p-ERK T202/Y204; read-out: AsPC-1 p-ERK IC50
pIC50: −log10 of the molar value.
READOUT KIND: pIC50

1) CCn1c(-c2cc(C#CCN3CCCOCC3)cnc2[C@H](C)OC)c2c3cc(ccc31)-c1csc(n1)C[C@H](NC(=O)C[C@@H]1CC1(F)F)C(=O)N1CCC[C@H](N1)C(=O)OCC(C)(C)C2 (atropisomer, axis not shown; (Ra)) [Compound Z932-1]	8.64
2) CCn1c(-c2cc(N3CCN(CCS(C)(=O)=O)CC3)cnc2[C@H](C)OC)c2c3cc(ccc31)-c1csc(n1)C[C@H](NC(=O)[C@H]1[C@H](C)[C@@H]1C)C(=O)N1CCC[C@H](N1)C(=O)OCC1(CC1)C2 (single isomer, unassigned) [Compound Z367]	8.14
3) CCn1c(-c2cc(C#CCN3CCC3)cnc2[C@H](C)OC)c2c3cc(ccc31)-c1csc(n1)C[C@H](NC(=O)[C@H]1[C@@H]3COC[C@@H]31)C(=O)N1CCC[C@H](N1)C(=O)OCC(C)(C)C2 (atropisomer, axis not shown; (Ra)) [Compound Z1031]	9.13
4) CCn1c(-c2cc([C@@H]3CCN4CCOC[C@@H]4C3)cnc2[C@H](C)OC)c2c3cc(ccc31)-c1csc(n1)C[C@H](NC(=O)[C@H]1[C@H](C)[C@@H]1C)C(=O)N1CCC[C@H](N1)C(=O)OCC1(CC1)C2 (single isomer, unassigned) [Compound Z77]	7.86
